FYI, the data here is from patent US20180057604A1.

Kd overview
Target: T1, human TfR extracellular domain with N-terminal His tag (human, UniProt P02786 89-760)
T1 construct: Biotinylated in some assays; also called huTfR; HuTfR
T1 sequence (P02786 89-760 G142S): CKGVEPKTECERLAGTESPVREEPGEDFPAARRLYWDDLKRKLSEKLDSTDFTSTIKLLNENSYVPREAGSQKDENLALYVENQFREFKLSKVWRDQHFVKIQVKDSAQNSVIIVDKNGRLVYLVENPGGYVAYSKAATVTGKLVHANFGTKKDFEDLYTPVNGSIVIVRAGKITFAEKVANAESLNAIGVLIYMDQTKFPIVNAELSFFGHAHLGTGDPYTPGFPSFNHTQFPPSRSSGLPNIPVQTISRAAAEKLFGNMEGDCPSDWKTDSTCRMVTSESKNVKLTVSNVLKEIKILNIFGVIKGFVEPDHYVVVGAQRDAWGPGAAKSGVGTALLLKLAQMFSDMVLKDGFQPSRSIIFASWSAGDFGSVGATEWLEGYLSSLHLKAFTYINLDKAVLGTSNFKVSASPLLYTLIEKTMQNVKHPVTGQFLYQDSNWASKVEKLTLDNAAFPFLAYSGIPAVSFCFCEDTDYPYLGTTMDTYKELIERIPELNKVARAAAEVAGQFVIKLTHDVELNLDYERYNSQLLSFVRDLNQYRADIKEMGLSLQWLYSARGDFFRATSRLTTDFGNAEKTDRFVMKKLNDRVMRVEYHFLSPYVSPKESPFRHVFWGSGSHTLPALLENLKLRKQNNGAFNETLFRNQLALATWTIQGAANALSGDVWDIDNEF
Experiment: SPR, IgG;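 further: His-tagged TfR captured via immobilized anti-His antibody on a CM5 chip, antibody injected in 3-fold dilution series by single cycle kinetics, 1:1 Langmuir or steady-state fit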
Numbers only; they are read as nM.

Use the examples below as a reference point.
Entry hu15G11.v3 (antibody, V domains shown, IgG; HC 48 M, 67 V, 69 I, 71 R, 73 T) VH: EVQLVQSGAEVKKPGASVKVSCKASGYTFTSYWMHWVRQAPGQRLEWMGEINPTNGRTNYIEKFKSRVTITRDTSASTAYMELSSLRSEDTAVYYCARGTRAYHYWGQGTMVTVSS VL: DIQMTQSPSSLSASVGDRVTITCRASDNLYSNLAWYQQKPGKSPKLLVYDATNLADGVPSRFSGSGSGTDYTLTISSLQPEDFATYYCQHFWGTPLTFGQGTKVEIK has what Kd?
4.12

Which measured Kd value corresponds to hu7A4.v3 (antibody, V domains shown, IgG) VH: EVQLVQSGAEVKKPGASVKVSCKASGYTFTDYAMHWVRQAPGQGLEWMGGISTYFGRTNYNQKFKGRVTMTVDTSISTAYMELSRLRSDDTAVYYCARGLSGNYVMDYWGQGTTVTVSS VL: DIVMTQSPDSLAVSLGERATINCRASESVDSYGNSFMHWYQQKPGQPPKLLIYRASNLESGVPDRFSGSGSGTDFTLTISSLQAEDVAVYYCQQSNEGPPTFGQGTKLEIK ?
0.543

Continue with the next binder.
Reported Kd, binder hu7A4.v6 (antibody, V domains shown, IgG) VH: EVQLVQSGAEVKKPGASVKVSCKGSGYTFTDYAMHWVRQAPGQGLEWMGGISTYFGRTNYNQKFKGRVTMTRDTSISTAYMELSRLRSDDTAVYYCARGLSGNYVMDYWGQGTTVTVSS VL: DIVMTQSPDSLAVSLGERATINCRASESVDSYGNSFMHWYQQKPGQPPKLLIYRASNLESGIPDRFSGSGSGTDFTLTISSLQAEDVAVYYCQQSNEGPPTFGQGTKLEIK : ____
0.26
